Assign MIC to each entry below.
- System: E. coli ATCC BAA-196_TEM-10
- PROTOCOL_SUMMARY: MIC by broth microdilution (CLSI), E. coli ATCC BAA-196
- Assay type: cell-based
- TEST_CONTEXT: Escherichia coli, ATCCBAA196; E. coli ATCC BAA-196, TEM-10, ESBL producing strain; 10000 cfu/well; cation-adjusted Mueller Hinton broth with 20 μM human apo-transferrin; read-out: minimum growth inhibition concentration (MIC)
Numbers only, in µg/mL.

Sample answers from the record:
COMPOUND | MEASURED_QUANTITY | VALUE_OBSERVED
NCC[N+]1(CC2=C(C(=O)[O-])N3C(=O)[C@@H](NC(=O)/C(=N\OC[C@H](NC(=O)c4ccc(O)c(O)c4Cl)C(=O)O)c4csc(N)n4)[C@H]3SC2)CCCC1 [Compound I-2] | MIC | 0.25
CC1(C)CCc2ccc[n+](CC3=C(C(=O)[O-])N4C(=O)[C@@H](NC(=O)/C(=N\OC[C@H](NC(=O)c5ccc(O)c(O)c5Cl)C(=O)[O-])c5csc(N)n5)[C@H]4SC3)c21.[Na+] [Compound I-4] | MIC | 0.5
Nc1nc(/C(=N/OC(CNC(=O)c2ccc(O)c(O)c2Cl)C(=O)[O-])C(=O)N[C@@H]2C(=O)N3C(C(=O)[O-])=C(C[N+]4(CCNC(=O)CC[C@H](N)C(=O)O)CCCC4)CS[C@H]23)c(Cl)s1.[Na+] (some centres unmarked) [Compound I-29] | MIC | 0.5
CC(C)(O/N=C(\C(=O)N[C@@H]1C(=O)N2C(C(=O)[O-])=C(C[N@+]3(C)[C@@H]4CC[C@H]3C[C@@H](N)C4)CS[C@H]12)c1ccc(O)c(O)c1Cl)C(=O)O [Compound I-20] | MIC | 2
Nc1nc(/C(=N/OC(CNC(=O)c2ccc(O)c(O)c2Cl)C(=O)[O-])C(=O)N[C@@H]2C(=O)N3C(C(=O)[O-])=C(C[N+]45CCCC4CCC5)CS[C@H]23)cs1.[Na+] (some centres unmarked) [Compound I-24] | MIC | 1
Nc1nc(/C(=N/OC(CNC(=O)c2ccc(O)c(O)c2Cl)C(=O)[O-])C(=O)N[C@@H]2C(=O)N3C(C(=O)[O-])=C(C[N+]45CCCC4CCC5)CS[C@H]23)c(Cl)s1.[Na+] (some centres unmarked) [Compound I-28] | MIC | 0.5
NCC[N+]1(CC2=C(C(=O)[O-])N3C(=O)[C@@H](NC(=O)/C(=N\OCc4ccc(O)c(O)c4C(=O)O)c4csc(N)n4)[C@H]3SC2)CCCC1 [Compound I-19] | MIC | 8
Nc1nc(/C(=N/OC(CNC(=O)c2ccc(O)c(O)c2Cl)C(=O)[O-])C(=O)N[C@@H]2C(=O)N3C(C(=O)[O-])=C(C[N+]4(CCNC(=O)C[C@@H](N)CC(=O)O)CCCC4)CS[C@H]23)cs1.[Na+] (some centres unmarked) [Compound I-27] | MIC | 2
Nc1nc(/C(=N/OC(CNC(=O)c2ccc(O)c(O)c2Cl)C(=O)[O-])C(=O)N[C@@H]2C(=O)N3C(C(=O)[O-])=C(C[n+]4cccc5c4CCC5)CS[C@H]23)cs1.[Na+] (some centres unmarked) [Compound I-13] | MIC | 1
C[N+]1(CC2=C(C(=O)[O-])N3C(=O)[C@@H](NC(=O)/C(=N\OC(CNC(=O)c4ccc(O)c(O)c4Cl)C(=O)[O-])c4csc(N)n4)[C@H]3SC2)CCCC1.[Na+] (some centres unmarked) [Compound I-8] | MIC | 0.5

Switching to the query record.
Fill in: MIC of Nc1nc(/C(=N/OC(CNC(=O)c2ccc(O)c(O)c2Cl)C(=O)[O-])C(=O)N[C@@H]2C(=O)N3C(C(=O)[O-])=C(C[N+]45CCC(CC4)CC5)CS[C@H]23)c(Cl)s1.[Na+] (some centres unmarked) [Compound I-15] is ___
1

meta.source: patent US9290515B2
